biological target: MAGI2_6, Q86UL8; experiment: holdup assay; parameters: key: below the threshold = too weak to quantify, mostly under pKd 3.1 to 4; settings: plain residues with an end cap or a label only (N-terminal biotin on a linker: ado-ado)
Sequence (Q86UL8 1141-1229): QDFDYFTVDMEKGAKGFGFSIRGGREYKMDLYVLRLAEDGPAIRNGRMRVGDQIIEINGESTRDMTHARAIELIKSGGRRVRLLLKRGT
MEASUREMENT TYPE: pKd

Previously resolved entries follow.
binder="KKMLQRRTLL [OR8G1, Q15617]" result="below the threshold"
binder="NIAESLESLV [PTPRZ1, P23471]" result=3.96
binder="LPAVCYDIDI [PTTG2, Q9NZH5]" result="below the threshold"
binder="TISFTQTSQF [SLC1A1, P43005]" result="below the threshold"
binder="DFLSTFHIRI [CIB2, O75838]" result="below the threshold"
binder="QSGLYESEEL [MYOT, Q9UBF9]" result=4.24

Prompt: Fill in pKd for record SRSVVESDEL [MYPN, Q86TC9]
Response: below the threshold

Prompt: Fill in pKd for record KRPEMTSSSV [MUC3A, MUC3B, Q02505;Q9H195]
Response: 3.66

All figures here come from paper PMC9482650.
